The values you see were collected from the NIST ThermoML archive (doi:10.1021/je060247x).

details: 313.15 K; 2000 kPa; Liquid
measurement-name: mass density (kg/m3)
Lab book: enter the figure in kg/m3, no units written.

Let me know recorded mass density for CCCCn1cc[n+](C)c1.O=S(=O)([O-])C(F)(F)F [1-butyl-3-methylimidazolium trifluoromethanesulfonate] , thanks.
1288.7

Let me know recorded mass density for CCCCn1cc[n+](C)c1.F[B-](F)(F)F [1-butyl-3-methylimidazolium tetrafluoroborate] , thanks.
1191.8

====

settings: 313.15 K; 1000 kPa; Liquid
measurement-name: mass density (kg/m3)
Lab book: enter the figure in kg/m3, no units written.

Known mass density results, listed for orientation:
[[record]]
compound = "CCCCn1cc[n+](C)c1.O=S(=O)([O-])C(F)(F)F [1-butyl-3-methylimidazolium trifluoromethanesulfonate]"
meas_value = 1288.1

[[record]]
compound = "CCCCCCCC[n+]1ccn(C)c1.F[P-](F)(F)(F)(F)F [1-octyl-3-methylimidazolium hexafluorophosphate]"
meas_value = 1225.9

[[record]]
compound = "CCCCn1cc[n+](C)c1C.F[P-](F)(F)(F)(F)F [1-butyl-2,3-dimethylimidazolium hexafluorophosphate]"
meas_value = 1340

[[record]]
compound = "CCCCCCCC[n+]1ccn(C)c1.F[B-](F)(F)F [1-methyl-3-octylimidazolium tetrafluoroborate]"
meas_value = 1093.4

[[record]]
compound = "CCCCn1cc[n+](C)c1.F[B-](F)(F)F [1-butyl-3-methylimidazolium tetrafluoroborate]"
meas_value = 1191.3


Could you now look at the following compound, please?
Let me know recorded mass density for CCCCCCn1cc[n+](C)c1.F[P-](F)(F)(F)(F)F [1-hexyl-3-methylimidazolium hexafluorophosphate] , thanks.
1282

====

Documented mass density across a set of compounds
conditions: 343.15 K; 100 kPa; Liquid
Lab book: enter the figure in kg/m3, no units written.

Known mass density results, listed for orientation:
[[record]]
compound = "CCCCn1cc[n+](C)c1.F[B-](F)(F)F [1-butyl-3-methylimidazolium tetrafluoroborate]"
unit_name = "kg/m3"
meas_value = 1168.4

[[record]]
compound = "CCCCCCCC[n+]1ccn(C)c1.F[B-](F)(F)F [1-methyl-3-octylimidazolium tetrafluoroborate]"
unit_name = "kg/m3"
meas_value = 1071.4


Let me know recorded mass density for CCCCn1cc[n+](C)c1.O=S(=O)([O-])C(F)(F)F [1-butyl-3-methylimidazolium trifluoromethanesulfonate] , thanks.
1262.5

Let me know recorded mass density for CCCCn1cc[n+](C)c1C.F[P-](F)(F)(F)(F)F [1-butyl-2,3-dimethylimidazolium hexafluorophosphate] , thanks.
1313.5

Let me know recorded mass density for CCCCCCn1cc[n+](C)c1.F[P-](F)(F)(F)(F)F [1-hexyl-3-methylimidazolium hexafluorophosphate] , thanks.
1256.1

Let me know recorded mass density for CCCCCCCC[n+]1ccn(C)c1.F[P-](F)(F)(F)(F)F [1-octyl-3-methylimidazolium hexafluorophosphate] , thanks.
1201

====

Documented mass density across a set of molecules
conditions: 363.15 K; 100 kPa; Liquid
Lab book: enter the figure in kg/m3, no units written.

[[record]]
molecule = "CCCCn1cc[n+](C)c1C.F[P-](F)(F)(F)(F)F [1-butyl-2,3-dimethylimidazolium hexafluorophosphate]"
measurement_name = "mass density"
unit_name = "kg/m3"
meas_value = 1297.6

[[record]]
molecule = "CCCCCCCC[n+]1ccn(C)c1.F[B-](F)(F)F [1-methyl-3-octylimidazolium tetrafluoroborate]"
measurement_name = "mass density"
unit_name = "kg/m3"
meas_value = 1058.6

[[record]]
molecule = "CCCCn1cc[n+](C)c1.F[B-](F)(F)F [1-butyl-3-methylimidazolium tetrafluoroborate]"
measurement_name = "mass density"
unit_name = "kg/m3"
meas_value = 1154.7

[[record]]
molecule = "CCCCCCCC[n+]1ccn(C)c1.F[P-](F)(F)(F)(F)F [1-octyl-3-methylimidazolium hexafluorophosphate]"
measurement_name = "mass density"
unit_name = "kg/m3"
meas_value = 1186.2

[[record]]
molecule = "CCCCn1cc[n+](C)c1.O=S(=O)([O-])C(F)(F)F [1-butyl-3-methylimidazolium trifluoromethanesulfonate]"
measurement_name = "mass density"
unit_name = "kg/m3"
meas_value = 1246.8


Let me know recorded mass density for CCCCCCn1cc[n+](C)c1.F[P-](F)(F)(F)(F)F [1-hexyl-3-methylimidazolium hexafluorophosphate] , thanks.
1240.6

====

Documented mass density across a set of molecules
conditions: 333.15 K; 5000 kPa; Liquid
Lab book: enter the figure in kg/m3, no units written.

Known mass density results, listed for orientation:
[[record]]
molecule = "CCCCCCn1cc[n+](C)c1.F[P-](F)(F)(F)(F)F [1-hexyl-3-methylimidazolium hexafluorophosphate]"
unit_name = "kg/m3"
meas_value = 1267.3

[[record]]
molecule = "CCCCn1cc[n+](C)c1.O=S(=O)([O-])C(F)(F)F [1-butyl-3-methylimidazolium trifluoromethanesulfonate]"
unit_name = "kg/m3"
meas_value = 1273.8

[[record]]
molecule = "CCCCn1cc[n+](C)c1C.F[P-](F)(F)(F)(F)F [1-butyl-2,3-dimethylimidazolium hexafluorophosphate]"
unit_name = "kg/m3"
meas_value = 1324.6

[[record]]
molecule = "CCCCCCCC[n+]1ccn(C)c1.F[B-](F)(F)F [1-methyl-3-octylimidazolium tetrafluoroborate]"
unit_name = "kg/m3"
meas_value = 1080.9

[[record]]
molecule = "CCCCn1cc[n+](C)c1.F[B-](F)(F)F [1-butyl-3-methylimidazolium tetrafluoroborate]"
unit_name = "kg/m3"
meas_value = 1178.4


Let me know recorded mass density for CCCCCCCC[n+]1ccn(C)c1.F[P-](F)(F)(F)(F)F [1-octyl-3-methylimidazolium hexafluorophosphate] , thanks.
1212.2

====

Documented mass density across a set of compounds
conditions: 323.15 K; 100 kPa; Liquid
Numbers after ± are expanded uncertainties.
Answer as a quantity: numeral, then unit.

Known mass density results, listed for orientation:
[[record]]
compound = "CCCCCCn1cc[n+](C)c1.F[P-](F)(F)(F)(F)F [1-hexyl-3-methylimidazolium hexafluorophosphate]"
meas_value = "1272.7 ± 3 kg/m3"

[[record]]
compound = "CCCCn1cc[n+](C)c1.F[B-](F)(F)F [1-butyl-3-methylimidazolium tetrafluoroborate]"
meas_value = "1183 ± 2.4 kg/m3"

[[record]]
compound = "CCCCn1cc[n+](C)c1.O=S(=O)([O-])C(F)(F)F [1-butyl-3-methylimidazolium trifluoromethanesulfonate]"
meas_value = "1278.7 ± 1.4 kg/m3"


Let me know recorded mass density for CCCCCCCC[n+]1ccn(C)c1.F[B-](F)(F)F [1-methyl-3-octylimidazolium tetrafluoroborate] , thanks.
1085.4 ± 0.9 kg/m3

Let me know recorded mass density for CCCCCCCC[n+]1ccn(C)c1.F[P-](F)(F)(F)(F)F [1-octyl-3-methylimidazolium hexafluorophosphate] , thanks.
1217.6 ± 2.6 kg/m3

Let me know recorded mass density for CCCCn1cc[n+](C)c1C.F[P-](F)(F)(F)(F)F [1-butyl-2,3-dimethylimidazolium hexafluorophosphate] , thanks.
1330.9 ± 3.4 kg/m3

====

Documented mass density across a set of compounds
conditions: 303.15 K; 5000 kPa; Liquid
Lab book: enter the figure in kg/m3, no units written.

Let me know recorded mass density for CCCCCCCC[n+]1ccn(C)c1.F[P-](F)(F)(F)(F)F [1-octyl-3-methylimidazolium hexafluorophosphate] , thanks.
1236.7

Let me know recorded mass density for CCCCn1cc[n+](C)c1.O=S(=O)([O-])C(F)(F)F [1-butyl-3-methylimidazolium trifluoromethanesulfonate] , thanks.
1299.5

Let me know recorded mass density for CCCCCCCC[n+]1ccn(C)c1.F[B-](F)(F)F [1-methyl-3-octylimidazolium tetrafluoroborate] , thanks.
1103.1

Let me know recorded mass density for CCCCn1cc[n+](C)c1.F[B-](F)(F)F [1-butyl-3-methylimidazolium tetrafluoroborate] , thanks.
1201.1

Let me know recorded mass density for CCCCCCn1cc[n+](C)c1.F[P-](F)(F)(F)(F)F [1-hexyl-3-methylimidazolium hexafluorophosphate] , thanks.
1293.2

====

Documented mass density across a set of molecules
details: 293.15 K; 5000 kPa; Liquid
Lab book: enter the figure in kg/m3, no units written.

[[record]]
molecule = "CCCCn1cc[n+](C)c1.O=S(=O)([O-])C(F)(F)F [1-butyl-3-methylimidazolium trifluoromethanesulfonate]"
meas_value = 1308.8

[[record]]
molecule = "CCCCn1cc[n+](C)c1.F[B-](F)(F)F [1-butyl-3-methylimidazolium tetrafluoroborate]"
meas_value = 1209.1

[[record]]
molecule = "CCCCCCn1cc[n+](C)c1.F[P-](F)(F)(F)(F)F [1-hexyl-3-methylimidazolium hexafluorophosphate]"
meas_value = 1302.4

[[record]]
molecule = "CCCCCCCC[n+]1ccn(C)c1.F[P-](F)(F)(F)(F)F [1-octyl-3-methylimidazolium hexafluorophosphate]"
meas_value = 1245.1


Could you now look at the following molecule, please?
Let me know recorded mass density for CCCCCCCC[n+]1ccn(C)c1.F[B-](F)(F)F [1-methyl-3-octylimidazolium tetrafluoroborate] , thanks.
1110.9
